Molecular target: FXR LBD, GST (Homo sapiens)
Construct: FXR LBD, GST; purchased Invitrogen PV4834
Sequence (Q96RI1 262-486 limits assumed): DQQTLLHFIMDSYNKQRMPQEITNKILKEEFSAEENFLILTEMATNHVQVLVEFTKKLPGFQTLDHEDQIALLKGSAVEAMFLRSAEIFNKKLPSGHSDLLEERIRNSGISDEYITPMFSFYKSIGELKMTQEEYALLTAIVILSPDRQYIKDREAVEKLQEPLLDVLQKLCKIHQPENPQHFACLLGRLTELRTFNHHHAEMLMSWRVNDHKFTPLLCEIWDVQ
Assay: FXR Binding Assay (TR-FRET, Fluorescein-SRC2-2 coactivator peptide)
Conditions: TR-FRET FXR LBD coactivator recruitment
Mark Met for EC50 under 100 nM, Not met if at or over.

Worked set:
                                   compound      cat
0  CC1CN(CCc2c(-c3c(Cl)cccc3Cl)noc2C2CC2)CCN1c1ccc2nc(C(=O)O)ccc2c1 (stereo not drawn)      Met
1  Cc1cccc(Cl)c1-c1noc(C2CC2)c1CCN1CCN(c2ccc3c(C(=O)O)cn(C)c3c2)CC1  Not met
2  Cn1cc(C(=O)O)c2ccc(N3CCN(CCc4c(-c5c(F)cccc5Cl)noc4C4CC4)CC3)cc21  Not met
3  O=C(O)c1ccc2nc(N3C4CCC3CN(CCc3c(-c5ccccc5OC(F)(F)F)noc3C3CC3)C4)sc2c1  Not met
4  Cn1cc(C(=O)O)c2ccc(C3CCN(CCc4c(-c5c(Cl)cccc5Cl)noc4C4CC4)CC3)cc21      Met

Qu. I wonder whether Cn1cc(C(=O)O)c2ccc(N3CCN(CCc4c(-c5c(Cl)cccc5Cl)noc4C4CC4)C(C)(C)C3)cc21 has EC50 below 100 nM. Can you tell?
Ans. Met

Qu. I wonder whether O=C(O)c1cc(F)c2nc(N3C4CCC3CN(CCc3c(-c5c(Cl)cccc5Cl)noc3C3CC3)C4)sc2c1 has EC50 below 100 nM. Can you tell?
Ans. Met

Qu. I wonder whether Cn1cc(C(=O)O)c2ccc(N3CCN(CCc4c(-c5c(Cl)cccc5Cl)noc4C4CC4)CC3(C)C)cc21 has EC50 below 100 nM. Can you tell?
Ans. Met

Qu. I wonder whether O=C(O)c1c[nH]c2cc(N3CCN(CCc4c(-c5c(Cl)cccc5Cl)noc4C4CC4)CC3)ccc12 has EC50 below 100 nM. Can you tell?
Ans. Not met

Qu. I wonder whether C[C@H]1CN(CCc2c(-c3c(Cl)cccc3Cl)noc2C2CC2)CCN1c1ccc2c(C(=O)O)cn(C)c2c1 has EC50 below 100 nM. Can you tell?
Ans. Not met

Qu. I wonder whether COC(=O)c1cn(C)c2cc(N3CCC(C)N(CCc4c(-c5c(Cl)cccc5Cl)noc4C4CC4)CC3)ccc12 (stereo not drawn) has EC50 below 100 nM. Can you tell?
Ans. Not met

Qu. I wonder whether Cn1cc(C(=O)O)c2ccc(N3CCN(CCc4c(-c5ccccc5C(F)(F)F)noc4C4CC4)CC3)cc21 has EC50 below 100 nM. Can you tell?
Ans. Not met

Qu. I wonder whether C[C@@H]1CN(CCc2c(-c3c(Cl)cccc3Cl)noc2C2CC2)C[C@H](C)N1c1ccc2c(C(=O)O)cn(C)c2c1 has EC50 below 100 nM. Can you tell?
Ans. Not met

Qu. I wonder whether Cn1cc(C(=O)O)c2c(F)cc(N3CCN(CCc4c(-c5c(Cl)cccc5Cl)noc4C4CC4)CC3)cc21 has EC50 below 100 nM. Can you tell?
Ans. Not met
